Data origin: PubChem BioAssay (NCI)

system: HCT-15 colon; assay: NCI tumour cell line growth inhibition, 48 h
property-measured: TGI

O=C(N/C(=C\c1ccccc1)C1Nc2ccccc2C(=O)O1)c1ccccc1 (stereo not given)
> 100 µM
CC(C)(O)[C@H](CCO)O[Si](c1ccccc1)(c1ccccc1)C(C)(C)C
20.7 µM
COc1cc([C@@H]2c3cc4c(c(O)c3C[C@H]3COC(=O)[C@@H]32)OCO4)cc(OC)c1O
> 9.28 µM
O=C1OC(c2ccccc2)N/C1=C\c1ccc2c(c1)OCO2 (stereo not given)
> 100 µM
CC(O[Si](C)(C)C)C1C=CC(C)n2c(=O)n(-c3ccccc3)c(=O)n21 (stereo not given)
> 100 µM

Please tell me: TGI of "CC(=O)Nc1sc2c(c1-c1nc3ccccc3s1)CNC2" , system HCT-15 colon?
8.89 µM

Please tell me: TGI of N#CC(c1cc(Cl)ncn1)c1nc2ccccc2s1 (stereo not given) , system HCT-15 colon?
15.6 µM

Please tell me: TGI of "c1ccc2c(c1)C(=Nc1ccc(N=C3c4ccccc4-c4ccccc43)cc1)c1ccccc1-2" , system HCT-15 colon?
> 100 µM

Please tell me: TGI of "CCN(CC)c1nc(N(C)C)c2cc(OC)ccc2n1" , system HCT-15 colon?
> 100 µM

Please tell me: TGI of CCC/C(=N\NC(=O)c1cc2ccccc2cc1O)C(CC)C(=O)CCC(=O)N(Cc1ccccc1)Cc1ccccc1 (stereo not given) , system HCT-15 colon?
> 100 µM
